experimental-protocol: NCI Yeast Anticancer Drug Screen. Data for the mec2-1 strain (AID 157)
assay-setup: S. cerevisiae mec2-1 strain, at 50.0 µM
The panel holds about 79,000 compounds, 15% with a hit somewhere; the sample as a whole holds those more often. Activity calls are given as the source filed them. No stated cut-off is given here; in the data, active means growth inhibition above about 70%; inactive means the rest.
Choose one outcome from this list and give only that: active, inactive

Record excerpt, results attached:
compound	discrete-label
CC(=O)C(CN(C)C)C(c1ccccc1)c1c(O)c2ccccc2oc1=O (configuration not stated)	inactive
CS(=O)(=O)[O-].CS(=O)(=O)[O-].NC1CCCCC1N.[Pt+4] (configuration not stated)	active
CCCCCCCCCCCCCCCCCC[N+](C)(C)C	active
C=CCCCCCCCCC(=O)O (tested in a mixture with another compound)	inactive
Cc1cc[n+](C2=C(Nc3cccc(C(F)(F)F)c3)C(=O)c3ccccc3C2=O)cc1	inactive
C/C(=C\c1ccc2c(c1)OCO2)[N+](=O)[O-]	active

Below: the item to evaluate.
Could you check what this test reported for O=[N+]([O-])[O-].O=[N+]([O-])[O-].[Au].[Au].c1ccc([P-]c2ccccc2)cc1.c1ccc([P-]c2ccccc2)cc1 ?
active

###

compounds and their reported growth inhibition
experimental-protocol: NCI Yeast Anticancer Drug Screen. Data for the mec2-1 strain (AID 157)
assay-setup: S. cerevisiae mec2-1 strain, at 1.2 µM, stronger effect = higher value
The panel holds about 79,000 compounds, 15% with a hit somewhere; the sample as a whole holds those more often. Activity calls are given as the source filed them. Rule as the data show it: active = growth inhibition above about 70%; inactive = the rest.

compound	growth inhibition
S=C1NC2(CCCCC2)NC12CCCCC2	-12% (inactive)
C[CH2][Sn]([CH2]C)([O]S(C)(=O)=O)[O]S(C)(=O)=O	-15% (inactive)

growth inhibition for C[C@]12CCc3nonc3C1CC[C@@H]1C2CC[C@]2(C)C(=O)CCC12 (stereo partly drawn) ?
-1% (inactive)

###

experimental-protocol: NCI Yeast Anticancer Drug Screen. Data for the mlh1 rad18 strain (AID 175)
assay-setup: S. cerevisiae mlh1 rad18 strain growth inhibition; at 5.0 µM (retest, dose inferred, filed as 0.5); stronger effect = higher value
Experimental: Growth inhibition of yeast strains with defined genetic alterations is measured as a screen for potential anti-cancer activity. Selected strains with alterations in DNA damage repair or cell cycle control were exposed to compounds and growth inhibition was measured relative to vehicle treated controls. The strain used in this assay is mlh1 rad18
The panel holds about 79,000 compounds, 15% with a hit somewhere; the sample as a whole holds those more often.
molecules and their reported growth inhibition
Could you give me the number in %? Just the number is fine.

growth inhibition for CC1=C(N2CC2)C(=O)c2ccccc2C1=O ?
-99

growth inhibition for COC(=O)C1C2c3ccccc3C(c3ccccc32)C1C(=O)OC (stereo not drawn) ?
17

growth inhibition for Cc1cc[n+](C2=C(Nc3cccc(C(F)(F)F)c3)C(=O)c3ccccc3C2=O)cc1 ?
3

growth inhibition for COc1c(O)c2c(c3cc(C(=O)N4CCc5c4c(O)c(OC)c4[nH]c(C(=O)N6CC7CC78C6=CC(=O)c6[nH]cc(C)c68)cc54)[nH]c13)CCN2C(N)=O (stereo not drawn) ?
98

growth inhibition for Nc1cc(Cl)ccc1C(=O)c1ccccc1Cl ?
-4

growth inhibition for CCOC(=S)S ?
31

growth inhibition for CCCCN(C)CC(C(C)=O)C(c1ccccc1)c1c(O)c2ccccc2oc1=O (stereo not drawn) ?
22

###

experimental-protocol: NCI Yeast Anticancer Drug Screen. Data for the sgs1 mgt1 strain (AID 161);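 further: 0% = growth of cultures given vehicle only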
assay-setup: S. cerevisiae sgs1 mgt1 strain, at 5.0 µM (retest, dose inferred, filed as 0.5)
The panel holds about 79,000 compounds, 15% with a hit somewhere; the sample as a whole holds those more often. Active and inactive are the calls of the source. Cut-off read from the data, not from the text of the source: active = growth inhibition above about 70%; inactive = the rest.
Choose one outcome from this list and give only that: 1.0 = active, 0.0 = inactive

Record excerpt, results attached:
compound	discrete-label
S=C1NC2(CCCCC2)NC12CCCCC2	0.0
O=C(C1C(c2ccccc2)N1C(c1ccccc1)c1ccccc1)C1C(c2ccccc2)N1C(c1ccccc1)c1ccccc1 (stereo not drawn)	0.0
CCOP(=O)(OCC)/C(C#N)=C/c1ccccc1Cl	0.0
COc1cc(Br)cc(/C=C(\C)[N+](=O)[O-])c1O	0.0
O=[N+]([O-])C(Br)(Br)CCC(Br)(Br)[N+](=O)[O-]	1.0
[Cl][Hg][Cl].c1ccc(CSc2ccccc2)cc1	1.0
CC(=O)[O][Hg][c]1ccccc1N	1.0
Nc1ncc(CCCCc2ccc(NC(=O)Nc3ccc(S(=O)(=O)F)cc3)cc2)c(N)n1	0.0
Cc1cc(NCc2ccccc2)c2ccccc2[n+]1CCCCCCCCCC[n+]1c(C)cc(NCc2ccccc2)c2ccccc21	1.0
Oc1c(Br)cc(Br)cc1Br	0.0

Could you check what this test reported for FC(F)(F)c1nnn[n-]1.[Au+].c1ccc([PH+](c2ccccc2)c2ccccc2)cc1 ?
1.0

Could you check what this test reported for CCCN1CN(c2ccccc2)C2(CCN(CCCC(=O)c3ccc(F)cc3)CC2)C1=O ?
0.0

Could you check what this test reported for CCCCCOC(=O)CCl ?
0.0

Could you check what this test reported for N#C[SH2+].N#C[SH2+].N#C[SH2+].N#C[SH2+].[Cu+2].c1ccc(C[P+](c2ccccc2)(c2ccccc2)c2ccccc2)cc1 ?
0.0

Could you check what this test reported for ClCCN(CCCl)c1ccc(CNCCCNCc2ccc(N(CCCl)CCCl)cc2)cc1 ?
0.0

Could you check what this test reported for Cc1oc2c([N+](=O)[O-])cccc2c1[N+](=O)[O-] ?
1.0

Could you check what this test reported for Cc1ccc2nc3sc(=O)sc3nc2c1 ?
0.0

Could you check what this test reported for [Se]c1ncnc2nc[nH]c12 ?
0.0

Could you check what this test reported for CCc1cccc(C(C)C)c1NC1=C([n+]2ccc(C)cc2)C(=O)c2ccccc2C1=O ?
0.0

Could you check what this test reported for Nc1nnc(N)n1-n1c(N)nnc1N ?
0.0

Could you check what this test reported for C[C@]12CCC(=O)C=C1CC[C@@H]1C2CC[C@@]2(C)C1CC[C@@H]2OC(=O)C12OC1CCC2=O (stereo partly drawn) ?
0.0

Could you check what this test reported for CC1=C(O)C(=O)C=C2C1=CC=C1[C@@]2(C)CCC2(C)[C@@H]3C[C@@H](C)C(=O)C[C@]3(C)CC[C@]12C (stereo partly drawn) ?
0.0

Could you check what this test reported for CC(=O)Nc1cccc([As+](C)(c2cccc(NC(C)=O)c2)c2cccc(NC(C)=O)c2)c1 ?
0.0

Could you check what this test reported for CC(C)NCC(O)c1ccccc1Cl (stereo not drawn) ?
0.0

Could you check what this test reported for CC1=C(CO)C(=O)OC(C(C)C2CCC3C4CC5OC56C(O)C(N5CC5)=CC(=O)C6(C)C4CCC23C)C1 (stereo not drawn) ?
0.0

Could you check what this test reported for c1ccc(C[As+](c2ccccc2)(c2ccccc2)c2ccccc2)cc1 ?
0.0

Could you check what this test reported for CCC[As](CCC)SC1CCC2(C)C(=CCC3C4CCC(=O)C4(C)CCC32)C1 (stereo not drawn) ?
0.0

Could you check what this test reported for O=[N+]([O-])c1cc(S(=O)(=O)F)ccc1Cl ?
0.0

Could you check what this test reported for Cc1cc(O)c2c(c1)C(=O)C13C(=C2O)C(=O)C2C(O)C1C1C(O)C3C(=O)C3=C(O)c4c(O)cc(C)cc4C(=O)C321 (stereo not drawn) ?
0.0

Could you check what this test reported for COC(=O)CCCCCCCCC[CH2][Hg][Cl] ?
1.0

###

experimental-protocol: NCI Yeast Anticancer Drug Screen. Data for the rad50 strain (AID 155);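 further: 0% = growth of vehicle-only cultures of the same strain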
assay-setup: S. cerevisiae rad50 strain growth inhibition; at 50.0 µM
About 79,000 compounds went through this panel and 15% of them were active in at least one assay; those are over-represented in the sample as a whole. Active and inactive are the calls of the source. Cut-off read from the data, not from the text of the source: active = growth inhibition above about 70%; inactive = the rest.
Choose one outcome from this list and give only that: active, inactive

molecule	discrete-label
O=C(O)C1C2CCC(C2)C1c1ccccc1 (configuration not stated)	inactive
CCN(CC)CC(=O)c1ccc2c(ccc3ccccc32)c1	active
CCCCCCCCCCCC[As](=O)(O)O	active
C/C(=N\N=C(\[Se])N1CCN(c2ccccn2)CC1)c1ccccn1	active
Nc1c(Cl)cccc1C(=O)O	inactive

Below: the item to evaluate.
Could you check what this test reported for CC1(O)CC([CH2][Hg][I])OC([CH2][Hg][I])C1 (configuration not stated) ?
active

###

experimental-protocol: NCI Yeast Anticancer Drug Screen. Data for the rad18 strain (AID 177)
assay-setup: S. cerevisiae rad18 mutant growth inhibition; at 100.0 µM
The panel holds about 79,000 compounds, 15% with a hit somewhere; the sample as a whole holds those more often. Activity calls are given as the source filed them. Cut-off read from the data, not from the text of the source: active = growth inhibition above about 70%; inactive = the rest.
Choose one outcome from this list and give only that: active, inactive

compound	discrete-label
CCN(CC)CCBr	active
NC1=NCC(c2ccc(Cl)cc2)O1 (stereo unspecified)	inactive
CCNC(=O)OCC1C2=C(C(=O)C(C)=C(N)C2=O)N2CC3C(N3C)C12OC (stereo unspecified)	active
O=S(=O)(O)/C(=C\c1ccccc1)c1ccccc1 (tested in a mixture with another compound)	inactive
Oc1cccnc1[Se]	active
Oc1ccc(Cl)cc1Cc1ccccc1	active
O=c1oc2ccccc2c(O)c1C(c1ccc2c(c1)Cc1ccccc1-2)c1c(O)c2ccccc2oc1=O	active
CC[C@](O)(C(=O)O)c1cc2n(c(=O)c1CO)Cc1cc3ccccc3nc1-2	active
C[C@]12CCc3nonc3C1CC[C@@H]1C2CC[C@]2(C)C(=O)CCC12 (stereo partly specified)	inactive
CNCC(O)c1ccc(O)c(O)c1.[Pt].c1ccc([PH+](c2ccccc2)c2ccccc2)cc1.c1ccc([PH+](c2ccccc2)c2ccccc2)cc1	active

Could you check what this test reported for C=C[C@H]1CN2CC[C@H]1C[C@@H]2[C@@H](O)c1ccnc2ccccc12 ?
inactive

Could you check what this test reported for O=C(O)C1C2CCC(C2)C1c1ccccc1 (stereo unspecified) ?
inactive

Could you check what this test reported for O=S(=O)(O)c1ccc(Cl)cc1.[Cd] ?
inactive

Could you check what this test reported for CC[C@@]1(O)C[C@H](OC2CC(N(C)C)C(O)C(C)O2)c2c(O)c3c(c(O)c2[C@H]1OC1CC(N(C)C)C(O)C(C)O1)C(=O)c1cccc(O)c1C3=O (stereo partly specified) ?
active

Could you check what this test reported for O=C(COc1ccc(Cl)cc1Cl)NO ?
inactive

Could you check what this test reported for COC(=O)C1C2c3ccccc3C(c3ccccc32)C1C(=O)OC (stereo unspecified) ?
inactive
